- System: Zea mays (ZEAMX)
- Test description: Post-emergence Test, Zea mays (ZEAMX)
- Format: in vivo
- Set-up: key: 5=81-100%, 4=61-80%, 3=41-60%, 2=21-40%, 1=0-20% damage
- Measurement context: 250 g/Ha, evaluated after 13 days
# percentage damage caused to the plant, ZEAMX (five-point scale) per entry
Parameter: percentage damage caused to the plant, ZEAMX (five-point scale)

- CCOc1cc(C(F)(F)F)nn1Cc1cc(=O)c(C(=O)O)c(-c2ccc(Cl)c(Cl)c2)n1CC [Compound 148]: 1 (1=0-20%)
- CCn1c(Cn2nc(C(F)(F)F)nc2C)cc(=O)c(C(=O)O)c1-c1ccc(Cl)c(Cl)c1 [Compound 108]: 0
- CCn1c(Cn2nccc2Cl)cc(=O)c(C(=O)O)c1-c1ccc(Cl)c(Cl)c1 [Compound 80]: 1 (1=0-20%)
- CCn1c(Cn2ccc(OCC(F)(F)F)n2)cc(=O)c(C(=O)O)c1-c1ccc(Cl)c(Cl)c1 [Compound 185]: 1 (1=0-20%)
- CCn1c(Cn2cnc3ncccc32)cc(=O)c(C(=O)O)c1-c1ccc(Cl)c(Cl)c1 [Compound 125]: 1 (1=0-20%)
- CCn1c(Cn2ccc(OC(C)C)n2)cc(=O)c(C(=O)O)c1-c1ccc(Cl)c(Cl)c1 [Compound 166]: 2 (2=21-40%)
- CCn1c(Cn2cc(Cl)c(C3CC3)n2)cc(=O)c(C(=O)O)c1-c1ccc(Cl)c(Cl)c1 [Compound 94]: 0
- CCn1c(Cn2ccc(C(F)(F)F)n2)c(Br)c(=O)c(C(=O)O)c1-c1ccc(Cl)c(Cl)c1 [Compound 18]: 1 (1=0-20%)
- CCn1c(Cn2ncc3ccccc32)cc(=O)c(C(=O)O)c1-c1ccc(Cl)c(Cl)c1 [Compound 105]: 0
- CCn1c(Cn2nc(C(C)(C)C)cc2C(F)(F)F)cc(=O)c(C(=O)O)c1-c1ccc(Cl)c(Cl)c1 [Compound 181]: 0
- CCn1c(Cn2cc(Cl)c(C)n2)cc(=O)c(C(=O)O)c1-c1ccc(Cl)c(Cl)c1 [Compound 89]: 0
- CCn1c(Cn2cc(C)cn2)cc(=O)c(C(=O)O)c1-c1ccc(Cl)c(Cl)c1 [Compound 91]: 1 (1=0-20%)
- CCn1c(Cn2ccc(OC)n2)cc(=O)c(C(=O)O)c1-c1ccc(Cl)c(Cl)c1 [Compound 38]: 2 (2=21-40%)
- CCn1c(Cn2cc(C(F)F)cn2)cc(=O)c(C(=O)O)c1-c1ccc(Cl)c(Cl)c1 [Compound 109]: 1 (1=0-20%)
- CCn1c(Cn2nc(C(F)(F)F)cc2Cl)cc(=O)c(C(=O)O)c1-c1ccc(Cl)c(Cl)c1 [Compound 169]: 4 (4=61-80%)
- CCn1c(Cn2ccc(OCC(F)F)n2)cc(=O)c(C(=O)O)c1-c1ccc(Cl)c(Cl)c1 [Compound 165]: 2 (2=21-40%)
- CCOC(=O)c1c(-c2ccc(Cl)c(Cl)c2)n(CC)c(Cn2ccc(Cl)n2)cc1=O [Compound 3]: 0
- CCn1c(Cn2nc(Cl)cc2C(F)(F)F)cc(=O)c(C(=O)O)c1-c1ccc(Cl)c(Cl)c1 [Compound 104]: 4 (4=61-80%)
- CCn1c(Cn2ccc(OC(F)F)n2)cc(=O)c(C(=O)O)c1-c1ccc(Cl)c(Cl)c1 [Compound 37]: 1 (1=0-20%)
- CCn1c(Cn2ncc(C(F)(F)F)n2)cc(=O)c(C(=O)O)c1-c1ccc(Cl)c(Cl)c1 [Compound 189]: 4 (4=61-80%)
- CCn1c(Cn2ccc(C(F)(F)F)n2)cc(=O)c(C(=O)O)c1-c1ccc(Cl)c(F)c1 [Compound 30]: 3 (3=41-60%)
- CCn1c(Cn2nccc2OC(F)F)cc(=O)c(C(=O)O)c1-c1ccc(Cl)c(Cl)c1 [Compound 85]: 0
- CCn1c(Cn2cncc2C(F)(F)F)cc(=O)c(C(=O)O)c1-c1ccc(Cl)c(Cl)c1 [Compound 16]: 0
- CCn1c(Cn2nc(Cl)cc2Cl)cc(=O)c(C(=O)O)c1-c1ccc(Cl)c(Cl)c1 [Compound 134]: 2 (2=21-40%)
- CCn1c(Cn2ccc(C(F)(F)F)n2)cc(=O)c(C(=O)O)c1-c1ccc(Cl)c(Cl)c1 [Compound 2]: 4 (4=61-80%)
- CCn1c(Cn2ccc(NC(C)=O)n2)cc(=O)c(C(=O)O)c1-c1ccc(Cl)c(Cl)c1 [Compound 154]: 1 (1=0-20%)
- CCn1c(Cn2nc(C(F)(F)F)cc2C2CC2)cc(=O)c(C(=O)O)c1-c1ccc(Cl)c(Cl)c1 [Compound 184]: 1 (1=0-20%)
- CCn1c(Cn2ccc(C(F)F)n2)cc(=O)c(C(=O)O)c1-c1ccc(Cl)c(Cl)c1 [Compound 186]: 1 (1=0-20%)
- CCn1c(Cn2nc(C)cc2OC)cc(=O)c(C(=O)O)c1-c1ccc(Cl)c(Cl)c1 [Compound 127]: 1 (1=0-20%)
- Cn1c(Cn2ccc(C(F)(F)F)n2)cc(=O)c(C(=O)O)c1-c1ccc(Cl)c(Cl)c1 [Compound 33]: 1 (1=0-20%)
- CCn1c(Cn2cc3c(n2)COC3)cc(=O)c(C(=O)O)c1-c1ccc(Cl)c(Cl)c1 [Compound 92]: 2 (2=21-40%)
